- method-description: Accelerated stability screening monitored by SEC
- Format: physicochemical
- condition-set: SEC, 7 days storage at 50° C.
readout-label: Fragment (%)
Report only the number, with the unit % understood.

Exam item: Given the entry Hu2B5.1: humanized 2B5-8.0; VH SEQ ID NO 60, VL SEQ ID NO 61 (antibody, V domains shown) VH: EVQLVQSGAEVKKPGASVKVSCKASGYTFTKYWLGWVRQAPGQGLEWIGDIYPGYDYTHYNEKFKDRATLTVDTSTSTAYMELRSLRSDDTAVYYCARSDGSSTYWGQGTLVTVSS VL: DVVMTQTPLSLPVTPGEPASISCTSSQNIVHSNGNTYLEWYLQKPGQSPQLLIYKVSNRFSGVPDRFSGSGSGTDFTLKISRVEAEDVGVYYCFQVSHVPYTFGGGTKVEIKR , report its measured Fragment (%).
Marked response: 6.3675

Where do these numbers come from? They come from patent US8624002B2.
